- System under test: SHP2 (Homo sapiens, UniProt Q06124)
- Sequence (Q06124 1-593): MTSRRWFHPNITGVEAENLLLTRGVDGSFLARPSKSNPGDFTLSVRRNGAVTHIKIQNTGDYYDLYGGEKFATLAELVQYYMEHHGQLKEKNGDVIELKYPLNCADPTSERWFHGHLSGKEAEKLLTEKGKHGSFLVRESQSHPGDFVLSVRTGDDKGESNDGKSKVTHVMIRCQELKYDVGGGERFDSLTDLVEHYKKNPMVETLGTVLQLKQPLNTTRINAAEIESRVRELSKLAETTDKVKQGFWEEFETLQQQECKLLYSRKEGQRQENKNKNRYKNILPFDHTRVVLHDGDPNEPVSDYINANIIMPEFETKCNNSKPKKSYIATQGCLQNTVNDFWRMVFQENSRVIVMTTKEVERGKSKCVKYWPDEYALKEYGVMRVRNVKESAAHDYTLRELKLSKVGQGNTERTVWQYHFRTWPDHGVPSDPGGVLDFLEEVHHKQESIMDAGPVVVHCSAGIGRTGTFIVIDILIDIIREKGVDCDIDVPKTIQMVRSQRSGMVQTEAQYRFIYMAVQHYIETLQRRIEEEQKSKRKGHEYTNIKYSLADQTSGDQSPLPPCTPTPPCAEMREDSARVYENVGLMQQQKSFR
- Protocol summary: biochemical
- Setup conditions: read-out: SHP2 inhibition (%)@0.1 μM
Assay readout: inhibition at 0.1 µM (%)
Numeric answer only, unit % assumed.

Consider the following illustrative entries.
Compound: Nc1nc(N2CCC3(CC2)Cc2ccc(N4CCOCC4=O)cc2[C@H]3N)cnc1Sc1ccnc(N)c1Cl
Result value: 76

Compound: Nc1nc(N2CCC3(CC2)Cc2cccnc2C[C@H]3N)cnc1Sc1ccnc(N)c1Cl
Result value: 54

Compound: Nc1nc(N2CCC3(CC2)CC2CC2[C@H]3N)cnc1Sc1ccnc(N)c1Cl (stereo partly shown)
Result value: 75

Consider the additional compound presented here.
Challenge: Looking for the measured inhibition at 0.1 µM of Nc1nc(N2CCC3(CC2)c2ncccc2C[C@H]3N)cnc1Sc1ccnc(N)c1Cl , can you help?
Response given: 20

* * *

- System under test: SHP2 (Homo sapiens, UniProt Q06124)
- Sequence (Q06124 1-593): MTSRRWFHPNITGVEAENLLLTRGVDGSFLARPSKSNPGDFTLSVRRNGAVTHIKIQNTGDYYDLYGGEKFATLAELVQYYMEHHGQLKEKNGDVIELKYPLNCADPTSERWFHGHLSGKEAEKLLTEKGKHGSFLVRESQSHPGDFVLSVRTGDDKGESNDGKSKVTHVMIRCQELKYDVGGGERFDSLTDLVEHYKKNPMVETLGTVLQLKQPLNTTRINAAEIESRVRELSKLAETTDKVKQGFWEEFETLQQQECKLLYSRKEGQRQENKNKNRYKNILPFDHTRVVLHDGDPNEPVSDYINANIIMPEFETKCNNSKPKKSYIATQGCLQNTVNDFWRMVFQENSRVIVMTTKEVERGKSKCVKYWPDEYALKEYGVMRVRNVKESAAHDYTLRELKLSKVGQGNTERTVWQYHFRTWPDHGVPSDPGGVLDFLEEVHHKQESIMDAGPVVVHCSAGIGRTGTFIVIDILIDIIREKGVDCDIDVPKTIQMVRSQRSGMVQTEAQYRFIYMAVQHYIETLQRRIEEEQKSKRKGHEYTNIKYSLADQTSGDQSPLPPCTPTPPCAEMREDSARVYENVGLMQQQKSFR
- Protocol summary: biochemical
- Setup conditions: read-out: SHP2 inhibition (%)@0.1 μM
Reported inhibition at 0.1 µM values for the following compounds.
Numeric answer only, unit % assumed.

Consider the following illustrative entries.
Compound: Nc1nc(N2CCC3(CC2)Cc2cc(Br)ccc2[C@H]3N)cnc1Sc1ccnc(N)c1Cl [Example 47]
Result unit: %
inhibition at 0.1 µM: 81
--
Compound: N[C@@H]1c2cccnc2CC12CCN(c1cnc(Sc3cc(Cl)ncc3C(F)(F)F)cn1)CC2 [Example 119]
Result unit: %
inhibition at 0.1 µM: 61
--
Compound: Nc1nc(N2CCC3(CC2)Cc2ncccc2[C@H]3N)cnc1Sc1cccnc1C(F)(F)F [Example 114]
Result unit: %
inhibition at 0.1 µM: 96
--
Compound: Nc1cccc(Sc2cnc(N3CCC4(CC3)Cc3ncccc3C4N)cn2)c1Cl (stereo not drawn) [Example 128]
Result unit: %
inhibition at 0.1 µM: 84

Challenge: Looking for the measured inhibition at 0.1 µM of Nc1nc(N2CCC3(CC2)Cc2cc(F)c(Br)cc2[C@H]3N)cnc1Sc1ccnc(N)c1Cl [Example 38] , can you help?
Response given: 75

Challenge: Param item: Nc1cc(Sc2cnc(N3CCC4(CC3)Cc3ncccc3[C@H]4N)cn2)c(Cl)cn1 [Example 112]
Response given: 87

* * *

- System under test: SHP2 (Homo sapiens, UniProt Q06124)
- Protocol summary: biochemical
- Setup conditions: read-out: SHP2 inhibition (%)@0.1 μM
Assay readout: inhibition at 0.1 µM (%)
Numeric answer only, unit % assumed.

Consider the following illustrative entries.
Compound: Nc1nc(N2CCC3(CC2)Cc2ccc(C(=O)O)cc2[C@H]3N)cnc1Sc1ccnc(N)c1Cl
Result value: 75
//
Compound: Nc1cc(Sc2ncc(N3CCC4(CC3)Cc3ncccc3[C@H]4N)nc2N)c(Cl)cn1
Result value: 80
//
Compound: CN1CCN(c2ccc3c(c2)[C@@H](N)C2(CCN(c4cnc(Sc5ccnc(N)c5Cl)c(N)n4)CC2)C3)CC1
Result value: 16

Challenge: Looking for the measured inhibition at 0.1 µM of Nc1nc(N2CCC3(CC2)Cc2ccc(F)c(F)c2[C@H]3N)cnc1Sc1ccnc(N)c1Cl , can you help?
Response given: 74

Challenge: Param item: Nc1cccc(Sc2ncc(N3CCC4(CC3)Cc3ccccc3[C@H]4N)nc2N)c1Cl
Response given: 84

Challenge: Param item: Nc1nccc(Sc2cnc(N3CCC4(CC3)Cc3ccccc3[C@H]4N)cn2)c1Cl
Response given: 81

Challenge: Param item: N#Cc1ncccc1Sc1ncc(N2CCC3(CC2)Cc2ncccc2[C@H]3N)nc1N
Response given: 81

Challenge: Param item: Nc1cccc(Sc2ncc(N3CCC4(CC3)Cc3ncccc3[C@H]4N)nc2N)c1Cl
Response given: 81

* * *

Reported IC50 values for the following compounds.
- System under test: SHP2 (Homo sapiens, UniProt Q06124)
- Sequence (Q06124 1-593): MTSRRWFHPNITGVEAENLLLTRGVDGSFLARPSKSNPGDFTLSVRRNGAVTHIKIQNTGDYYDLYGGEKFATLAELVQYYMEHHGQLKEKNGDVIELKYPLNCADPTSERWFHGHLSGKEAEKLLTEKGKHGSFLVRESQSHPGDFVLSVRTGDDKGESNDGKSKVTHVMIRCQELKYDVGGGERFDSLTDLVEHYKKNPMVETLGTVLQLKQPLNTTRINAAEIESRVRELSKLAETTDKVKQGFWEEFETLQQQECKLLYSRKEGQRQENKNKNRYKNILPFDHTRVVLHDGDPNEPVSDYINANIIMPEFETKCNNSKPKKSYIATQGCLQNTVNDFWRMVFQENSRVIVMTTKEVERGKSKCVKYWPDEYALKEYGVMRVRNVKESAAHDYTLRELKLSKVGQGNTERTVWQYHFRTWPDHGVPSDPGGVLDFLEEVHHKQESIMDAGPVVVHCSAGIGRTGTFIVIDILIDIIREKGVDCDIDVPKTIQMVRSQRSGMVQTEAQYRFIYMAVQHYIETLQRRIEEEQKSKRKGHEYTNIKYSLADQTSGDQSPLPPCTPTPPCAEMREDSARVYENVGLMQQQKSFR
- Protocol summary: Phosphatase assays (IC50), DiFMUP substrate

Compound: Nc1nc(N2CCC3(CC2)Cc2ncccc2[C@H]3N)cnc1Sc1ccnc(N)c1Cl [Example 10]
Result value: 7 nM
--
Compound: Nc1nc(N2CCC3(CC2)Cc2scnc2[C@H]3N)cnc1Sc1ccncc1F [Example 88]
Result value: 36 nM
--
Compound: Nc1nc(N2CCC3(CC2)CC2CC2[C@H]3N)cnc1Sc1ccnc(N)c1Cl (some centres unmarked) [Example 81]
Result value: 8 nM
--
Compound: CC(=O)N1CC(F)(F)c2c(Sc3ncc(N4CCC5(CC4)CC4CC4[C@H]5N)nc3N)cccc21 (some centres unmarked) [Example 7]
Result value: 22 nM

Challenge: Looking for the measured IC50 of CN(C)c1nccc(Sc2cnc(N3CCC4(CC3)Cc3ncccc3[C@H]4N)cn2)c1Cl [Example 85] , can you help?
Response given: 6 nM

Challenge: Param item: Nc1nc(N2CCC3(CC2)Cc2ncccc2[C@H]3N)cnc1Sc1cccc(Cl)c1Cl [Example 84]
Response given: 3 nM

Challenge: Param item: Nc1nc(N2CCC3(CC2)Cc2ncccc2C3N)cnc1Sc1ccnc(N)c1Cl (centres unmarked) [Example 121]
Response given: 56 nM

Challenge: Param item: N[C@@H]1c2cccnc2CC12CCN(c1cnc(Sc3ccncc3)cn1)CC2 [Example 86]
Response given: 14 nM

* * *

Reported inhibition at 0.1 µM values for the following molecules.
- System under test: SHP2 (Homo sapiens)
- Sequence (Q06124 1-593): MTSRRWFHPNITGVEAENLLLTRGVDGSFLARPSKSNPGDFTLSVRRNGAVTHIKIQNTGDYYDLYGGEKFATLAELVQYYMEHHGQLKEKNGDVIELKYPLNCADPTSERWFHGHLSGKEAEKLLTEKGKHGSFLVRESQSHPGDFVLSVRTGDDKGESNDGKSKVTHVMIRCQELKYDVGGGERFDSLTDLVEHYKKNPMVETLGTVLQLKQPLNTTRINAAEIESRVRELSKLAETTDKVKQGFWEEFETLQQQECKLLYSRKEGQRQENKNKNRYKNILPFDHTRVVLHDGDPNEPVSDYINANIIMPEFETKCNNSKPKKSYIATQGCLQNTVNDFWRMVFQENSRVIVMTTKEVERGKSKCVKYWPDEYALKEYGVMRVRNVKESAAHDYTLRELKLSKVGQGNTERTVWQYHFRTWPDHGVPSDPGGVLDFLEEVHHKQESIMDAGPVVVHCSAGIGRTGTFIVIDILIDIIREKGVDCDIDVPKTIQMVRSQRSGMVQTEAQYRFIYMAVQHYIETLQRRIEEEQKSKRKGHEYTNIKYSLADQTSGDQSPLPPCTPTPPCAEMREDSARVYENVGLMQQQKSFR
- Protocol summary: biochemical
- Setup conditions: read-out: SHP2 inhibition (%)@0.1 μM
Numeric answer only, unit % assumed.

Consider the following illustrative entries.
Structure notation: Nc1nc(N2CCC3(CC2)Cc2nc4ccccc4cc2[C@H]3N)cnc1Sc1ccnc(N)c1Cl
System under test: SHP2 (Homo sapiens)
inhibition at 0.1 µM / %: 66
//
Structure notation: Nc1nc(N2CCC3(CC2)Cc2c(ccc4ccccc24)[C@H]3N)cnc1Sc1ccnc(N)c1Cl
System under test: SHP2 (Homo sapiens)
inhibition at 0.1 µM / %: 70
//
Structure notation: N=C1c2cscc2CC12CCN(c1cnc(Sc3ccnc(N)c3Cl)c(N)n1)CC2
System under test: SHP2 (Homo sapiens)
inhibition at 0.1 µM / %: 82
//
Structure notation: Nc1nc(N2CCC3(CC2)Cc2ccncc2[C@H]3N)cnc1Sc1ccnc(N)c1Cl
System under test: SHP2 (Homo sapiens)
inhibition at 0.1 µM / %: 49

Challenge: Looking for the measured inhibition at 0.1 µM of Nc1nc(N2CCC3(CC2)Cn2c(cccc2=O)[C@H]3N)cnc1Sc1ccnc(N)c1Cl , can you help?
Response given: 30

Challenge: Param item: CN(C)c1nccc(Sc2cnc(N3CCC4(CC3)Cc3ccccc3[C@H]4N)cn2)c1Cl
Response given: 85

Challenge: Param item: Nc1nc(N2CCC3(CC2)Oc2ncccc2[C@H]3N)cnc1Sc1ccnc(N)c1Cl
Response given: 66

Challenge: Param item: Nc1nc(N2CCC3(CC2)Cc2cnccc2[C@@H]3N)cnc1Sc1ccnc(N)c1Cl
Response given: 0
